The measured values listed here are drawn from patent US20210292762.

target: ICAM-1 (endogenous, TNFalpha-induced) (UniProt P05362 P05362:28-532); test: flow; TNFalpha-stimulated HMEC-1 cells, 37 C 30 min, yeast tRNA 200 ug/mL pre-treatment, n=3; settings: tags: HMEC-1 cells stimulated with TNFalpha 48 h; label: 5'-Alexa Fluor 488
Sequence (P05362 28-532, one chain of several): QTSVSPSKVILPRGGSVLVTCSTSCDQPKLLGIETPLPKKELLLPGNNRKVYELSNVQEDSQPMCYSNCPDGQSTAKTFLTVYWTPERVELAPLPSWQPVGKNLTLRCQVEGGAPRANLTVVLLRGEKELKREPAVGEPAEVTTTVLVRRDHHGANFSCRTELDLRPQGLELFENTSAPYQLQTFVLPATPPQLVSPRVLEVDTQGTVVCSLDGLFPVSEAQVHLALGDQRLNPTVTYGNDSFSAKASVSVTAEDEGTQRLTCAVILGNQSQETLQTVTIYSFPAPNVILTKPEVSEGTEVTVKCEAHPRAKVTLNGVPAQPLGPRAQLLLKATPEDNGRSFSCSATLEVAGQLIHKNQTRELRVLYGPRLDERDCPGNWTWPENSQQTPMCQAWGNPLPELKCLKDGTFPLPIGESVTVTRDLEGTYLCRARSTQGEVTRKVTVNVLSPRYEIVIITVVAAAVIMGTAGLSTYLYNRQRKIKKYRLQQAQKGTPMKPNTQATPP
quantity: Kd (nM)
Kindly answer with a numeric value in nM, unit omitted.

Query Alexa488-10.T (ssRNA, 2'-F pyrimidines; 5'-C12 amino linker) RNA: UCAUGAUACGUUGCGUGAGCAACUGCGGCGCUAAAGUUUGGUUGACUAGUACAUG yields Kd of 106
